Target: 5-hydroxytryptamine receptor 1A (Homo sapiens)
Sequence (P08908 whole entry): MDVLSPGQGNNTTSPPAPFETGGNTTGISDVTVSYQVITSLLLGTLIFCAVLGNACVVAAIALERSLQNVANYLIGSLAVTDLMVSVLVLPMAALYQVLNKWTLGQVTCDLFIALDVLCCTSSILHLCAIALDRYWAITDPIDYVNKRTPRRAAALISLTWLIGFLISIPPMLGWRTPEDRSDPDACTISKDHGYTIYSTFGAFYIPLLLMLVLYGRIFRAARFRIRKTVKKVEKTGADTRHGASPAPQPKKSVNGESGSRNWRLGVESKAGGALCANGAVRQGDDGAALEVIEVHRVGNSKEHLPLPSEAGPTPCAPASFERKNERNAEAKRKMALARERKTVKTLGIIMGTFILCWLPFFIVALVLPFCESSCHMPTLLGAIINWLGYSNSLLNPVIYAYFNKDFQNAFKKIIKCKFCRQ
// read-out Ki, gathered for 5-hydroxytryptamine receptor 1A (Homo sapiens) from published studies
Just a reminder that ties go to 0 (no): only Ki strictly below 40 nM counts as 1 (yes).

>>> assigned_label("CSc1ccccc1N1CCN(CCCCCCC(=O)N2Cc3ccccc3C[C@H]2C(N)=O)CC1")
"1 (yes)"
>>> assigned_label("COc1ccccc1N1CCN(C/C=C/CNC(=O)c2ccc3c(c2)Cc2ccccc2-3)CC1")
"0 (no)"
>>> assigned_label("CCCN(CCCc1c[nH]c2ccc(F)cc12)[C@@H]1COc2c(F)ccc(C(N)=O)c2C1")
"1 (yes)"
>>> assigned_label("O=C1Nc2ccccc2C12CCN(CCN1CCN(c3ccccc3Cl)CC1)C2 (stereo unspecified)")
"0 (no)"
>>> assigned_label("N#Cc1ccccc1N1CCN(CCN2C(=O)CC3(CCCC3)CC2=O)CC1")
"1 (yes)"
>>> assigned_label("O=C(CCc1ccccc1)NC1CCc2ccc(CCN3CCN(c4nsc5ccccc45)CC3)cc21 (stereo unspecified)")
"1 (yes)"
>>> assigned_label("Cc1cccc(F)c1Oc1cccc(F)c1OC1CNC1")
"1 (yes)"
>>> assigned_label("COc1ccccc1N1CCN(CCCCCC(=O)NCc2ccc(C#N)cc2)CC1")
"0 (no)"
>>> assigned_label("CN1CCC(c2c[nH]c3ccc(NC(=O)c4ccccc4F)nc23)CC1")
"0 (no)"
>>> assigned_label("COc1cccc(CCc2ccccc2OCCCN2CCN(c3ccccc3OC)CC2)c1")
"0 (no)"
>>> assigned_label("CCC(Oc1cc(F)ccc1C(F)(F)F)c1nc(N)nc(N2CCN(C)CC2)n1 (stereo unspecified)")
"0 (no)"

---

// read-out Ki, gathered for 5-hydroxytryptamine receptor 1A (Homo sapiens, UniProt P08908) from published studies
MEASURED_METRIC: Ki (nM)

>>> test_result("COc1ccccc1N1CCN(CCC(=O)c2ccsc2)CC1")
15.8
>>> test_result("CC(C)c1ccccc1OCCN1CCC(NS(=O)(=O)c2cccc(Cl)c2)CC1")
178
>>> test_result("CC1(c2ccc(F)cc2)NC(=O)N(CC(O)CN2CCN(c3ccc(Cl)cc3)CC2)C1=O (stereo not drawn)")
5300

---

// read-out Ki, gathered for UniProt P08908 from published studies
MEASURED_METRIC: Ki (nM)

>>> test_result("COc1ccccc1N1CCN(CCNS(=O)(=O)c2ccc3ccccc3c2)CC1")
5.19
>>> test_result("Cn1c(=O)cnn(CCCCN2CCN(c3ccccn3)CC2)c1=O")
1.1
>>> test_result("O=C(NCCCCN1CCN(c2ccccc2)CC1)c1ccc2ncccc2c1")
99
>>> test_result("CC(=O)OC(CCNC(=O)c1ccc(-c2ccccn2)cc1)CN1CCN(c2cccc(Cl)c2Cl)CC1 (stereo not given)")
117
>>> test_result("COc1cccc2c1OC(CNCCc1c[nH]c3ccc(F)cc13)CN2 (stereo not given)")
9.31
>>> test_result("COc1ccc(N2CCN(CCC(O)c3ccc(-c4ccccc4)cc3)CC2)cc1 (stereo not given)")
851
>>> test_result("COc1ccc(S(=O)(=O)NCCCN2CCN(c3ccccc3OC)CC2)cc1")
272
>>> test_result("Cc1ccc2c(OCCN3CCN(Cc4ccc5c(c4)NC(=O)CO5)CC3)cccc2n1")
63.1
>>> test_result("O=C1c2ccccc2S(=O)(=O)N1CCCCCN1CCN(c2ccc(Cl)cc2)CC1")
101
>>> test_result("COc1ccccc1N1CCN(CC2CCC(c3ccccc3)(c3ccccc3)O2)CC1 (stereo not given)")
4.37
>>> test_result("Cc1cccc(F)c1Oc1cccc(F)c1OC1CCNCC1")
4
>>> test_result("CCCN1CCc2cccc3c2C1Cc1cccc(OC(=O)CCCCC2CCSS2)c1-3 (racemic)")
137
>>> test_result("Cc1sc2nc(CCCCCN3CCN(c4ccc(Cl)cc4)CC3)[nH]c(=O)c2c1C")
53.9
>>> test_result("COc1ccccc1N1CCN(CC(O)CN2C(=O)NC(c3ccccc3)(c3ccccc3)C2=O)CC1 (racemic)")
197
>>> test_result("COc1ccccc1N1CCN(CCNc2ccc3cc([N+](=O)[O-])ccc3n2)CC1")
14.2

---

// read-out Ki, gathered for the protein given by its sequence from published studies
Target protein (sequence): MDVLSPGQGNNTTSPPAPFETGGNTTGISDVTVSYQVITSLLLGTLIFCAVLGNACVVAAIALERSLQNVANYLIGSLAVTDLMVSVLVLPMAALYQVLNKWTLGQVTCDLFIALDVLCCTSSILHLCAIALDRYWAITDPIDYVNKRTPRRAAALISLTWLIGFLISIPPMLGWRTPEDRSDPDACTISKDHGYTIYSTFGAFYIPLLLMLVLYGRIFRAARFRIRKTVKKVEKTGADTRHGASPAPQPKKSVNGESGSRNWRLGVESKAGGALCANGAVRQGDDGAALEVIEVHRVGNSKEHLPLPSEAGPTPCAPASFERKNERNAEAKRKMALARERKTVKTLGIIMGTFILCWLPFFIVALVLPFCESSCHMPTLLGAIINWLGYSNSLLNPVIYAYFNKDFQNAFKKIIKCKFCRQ
MEASURED_METRIC: Ki

>>> test_result("Fc1ccc(-c2noc3c2CCNCC3)cc1")
"> 10000 nM"
>>> test_result("Cc1ccc2c(OCC3CCN(Cc4ccc5c(c4)NC(=O)CO5)CC3)cccc2n1")
"> 1580 nM"
>>> test_result("O=C(NC1CCc2cc(CCN3CCN(c4nsc5ccccc45)CC3)ccc21)c1ccc(F)cc1 (stereo not drawn)")
"7.8 nM"

---

// read-out Ki, gathered for 5-hydroxytryptamine receptor 1A (Homo sapiens, UniProt P08908) from published studies
Just a reminder that ties go to -1: only Ki strictly below 20 nM counts as 1.

>>> assigned_label("COc1ccccc1N1CCN(CC2COC(c3ccccc3)(c3ccccc3)O2)CC1 (stereo not given)")
-1
>>> assigned_label("COc1ccccc1N1CCN(CCCN2CCCCn3c2nc2c3c(=O)n(C)c(=O)n2C)CC1")
1
>>> assigned_label("COc1ccccc1N1CCN(CCC(=O)c2ccc(C)s2)CC1")
1
>>> assigned_label("CN1CCN(c2nc(N)nc(COc3ccccc3Cl)n2)CC1")
-1
>>> assigned_label("O=C1N(Cc2ccccc2)C(c2ccccc2)=NC1(Nc1ccccn1)C(F)(F)F (stereo not given)")
-1

---

// read-out log10 Ki, gathered for UniProt P08908 from published studies
Target: UniProt P08908
Sequence (P08908 whole entry): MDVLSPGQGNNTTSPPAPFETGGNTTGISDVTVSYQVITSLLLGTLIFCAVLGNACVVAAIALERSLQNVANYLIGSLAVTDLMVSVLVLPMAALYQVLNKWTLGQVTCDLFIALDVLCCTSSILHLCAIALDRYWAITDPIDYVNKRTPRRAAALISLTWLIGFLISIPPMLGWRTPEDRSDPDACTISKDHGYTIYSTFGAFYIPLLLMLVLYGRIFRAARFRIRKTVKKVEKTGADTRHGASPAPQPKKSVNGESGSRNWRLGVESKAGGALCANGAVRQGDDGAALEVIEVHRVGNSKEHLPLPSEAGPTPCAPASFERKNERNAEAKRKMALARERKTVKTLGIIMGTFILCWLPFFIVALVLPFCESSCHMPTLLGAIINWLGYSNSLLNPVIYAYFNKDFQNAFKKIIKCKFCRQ
MEASURED_METRIC: log10 Ki (log10 of the value in nM)

>>> test_result("O=C(NC/C=C/CN1CCN(c2cccc(Cl)c2Cl)CC1)c1cc2ccccc2[nH]1")
2.29
>>> test_result("COc1cccc(OCCNCC2COC(c3ccccc3)(c3ccccc3)O2)c1OC (racemic)")
0.88
>>> test_result("CC(C)N1CC(CNCCc2c[nH]c3ccc(F)cc23)Oc2ccccc21 (stereo not drawn)")
0.45
>>> test_result("COc1ccccc1N1CCN(CCCCCN2C(=O)c3cccc4c(N)ccc(c34)C2=O)CC1")
-0.17
>>> test_result("Cc1cc(OCCCN2CCC(c3noc4cc(F)ccc34)CC2)ccc1CN1CCCC1")
1.95
>>> test_result("CN(C)[C@H]1CCc2c(cccc2-c2cc(C(F)(F)F)cc(C(F)(F)F)c2)C1")
3.35
>>> test_result("COc1ccccc1N1CCN(CCNc2c(C(=O)C(C)C)c(-c3ccccc3)nn(C)c2=O)CC1")
1.01
>>> test_result("CC(C)c1ccccc1OCCN1CCC(NS(=O)(=O)c2cccnc2)CC1")
2.57
>>> test_result("COc1ccc(-c2c(C#N)c(C(=O)NN3CCCCC3)nn2-c2ccccc2[125I])cc1")
1.97
>>> test_result("O=C1c2ccccc2S(=O)(=O)N1CCCCCCN1CCN(c2cccc3cccnc23)CC1")
0.60
>>> test_result("Cc1ccc2c(OCCN3CCC(Cc4cc5c(cc4F)OCC(=O)N5)CC3)cccc2n1")
-0.30
>>> test_result("CCCN(CCCCc1c[nH]c2ccc(F)cc12)C1COc2c(F)ccc(C(N)=O)c2C1 (racemic)")
0.64
